target: CYP2C9 (Homo sapiens, UniProt P11712); test: in vitro; design: cytochrome P450 isoform inhibition liability assay
Sequence (P11712 whole entry, canonical isoform): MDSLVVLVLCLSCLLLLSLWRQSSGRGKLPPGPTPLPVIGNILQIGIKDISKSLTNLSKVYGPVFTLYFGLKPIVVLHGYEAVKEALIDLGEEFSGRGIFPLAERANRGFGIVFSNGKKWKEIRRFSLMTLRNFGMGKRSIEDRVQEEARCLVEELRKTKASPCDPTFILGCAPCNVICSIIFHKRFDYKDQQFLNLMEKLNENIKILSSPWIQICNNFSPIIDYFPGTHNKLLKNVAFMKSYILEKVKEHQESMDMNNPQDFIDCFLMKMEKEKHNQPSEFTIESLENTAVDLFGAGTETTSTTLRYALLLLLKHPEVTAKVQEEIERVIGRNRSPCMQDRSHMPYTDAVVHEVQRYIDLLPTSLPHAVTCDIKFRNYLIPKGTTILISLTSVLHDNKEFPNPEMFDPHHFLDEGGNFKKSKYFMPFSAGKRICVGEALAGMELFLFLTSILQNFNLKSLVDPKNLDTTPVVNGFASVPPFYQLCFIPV
observation_type: inhibition at 10 µM

Example cases with answers are listed next.
input: Which inhibition at 10 µM reading was recorded for the molecule Nc1nnc(/C=C/c2ccccc2)s1 ?
output: 4.1%

input: Do the same for Nc1nnc(-c2ccc(Cl)c(Cl)c2)s1 please
output: 46.7%

input: Do the same for COc1cc(CNc2nnc(N)s2)cc(OC)c1OC please
output: 20.2%

List the reported inhibition at 10 µM of each molecule below.
1. COCCCNc1nnc(N)s1
2. Nc1nnc(NCCCc2ccccc2)s1
3. CN(C)CCc1nnc(N)s1
4. Nc1nnc(N2CCC(Cc3ccccc3)CC2)s1

output:
["-15.5%", "18.6%", "-13.5%", "45.9%"]

List the reported inhibition at 10 µM of each molecule below.
1. COc1ccc(-c2cccc(-c3nnc(N)s3)c2)cc1OC
2. Nc1nnc(-c2cccc([N+](=O)[O-])c2)s1

output:
53.2%
12.5%

List the reported inhibition at 10 µM of each molecule below.
1. CN(C)C(=O)NCc1cccc(-c2nnc(N)s2)c1
2. Nc1nnc(Cc2cccs2)s1
3. Nc1nnc(CCc2ccccc2)s1
4. Nc1nnc(-c2ccc(-c3ccccc3)cc2)s1
5. CN(C)C(=O)NCc1ccc(-c2nnc(N)s2)cc1
6. Nc1nnc(NCc2ccc(F)cc2)s1

output:
1: 19.7%; 2: 16%; 3: -10.5%; 4: 76.7%; 5: 36.6%; 6: 22.9%
